# Experimental Target: Glycogen synthase kinase-3 beta (Homo sapiens)
# Protocol Notes: Inhibition of recombinant human GSK3beta using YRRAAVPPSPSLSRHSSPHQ(pS)EDEEE as substrate measured after 60 mins by ADP-Glo luminescence assay
Parameter: IC50

# count of solved cases: 2
>  <Compound>
O=C1Nc2ccccc2/C1=C/c1cccs1

>  <Result>
> 10 µM

$$$$
>  <Compound>
O=C1Nc2ccccc2C1=Cc1cccnc1 (mixture of isomers)

>  <Result>
> 10 µM

$$$$

Pending compound:
Give reported IC50 value for O=C1Nc2ccccc2C12CC2c1ccccn1 (stereo not drawn)
1.23 µM

---

# Experimental Target: Glycogen synthase kinase-3 beta (Homo sapiens, UniProt P49841)
# Sequence (P49841 whole entry): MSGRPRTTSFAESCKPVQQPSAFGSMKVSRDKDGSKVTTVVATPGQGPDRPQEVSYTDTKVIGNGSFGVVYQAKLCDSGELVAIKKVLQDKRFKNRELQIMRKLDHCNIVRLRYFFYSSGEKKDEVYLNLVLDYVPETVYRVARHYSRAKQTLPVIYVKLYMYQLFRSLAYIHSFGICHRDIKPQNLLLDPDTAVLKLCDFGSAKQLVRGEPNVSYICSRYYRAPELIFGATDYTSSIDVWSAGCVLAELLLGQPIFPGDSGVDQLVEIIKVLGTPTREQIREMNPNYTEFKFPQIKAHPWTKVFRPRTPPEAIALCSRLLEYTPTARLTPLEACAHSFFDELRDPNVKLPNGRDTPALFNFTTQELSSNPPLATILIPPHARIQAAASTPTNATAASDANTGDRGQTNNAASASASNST
# Protocol Notes: Inhibition of recombinant human GSK3beta using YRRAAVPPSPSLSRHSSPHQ(pS)EDEEE as substrate measured after 60 mins by ADP-Glo luminescence assay
pIC50: −log10 of the molar value.
Parameter: pIC50

# count of solved cases: 3
>  <Molecule>
Cc1ccc(C(=O)/C=C2\C(=O)Nc3ccccc32)cc1

>  <pIC50>
< 5.00

$$$$
>  <Molecule>
COc1ccc2c(c1)/C(=C/C#N)C(=O)N2Cc1ccccc1

>  <pIC50>
< 5.00

$$$$
>  <Molecule>
N#CCC1(O)C(=O)Nc2ccc(NC(=O)c3ccccc3)cc21 (stereo not drawn)

>  <pIC50>
< 5.00

$$$$

Please tell me the measured pIC50 for COc1ccc(C(=O)CC2(O)C(=O)Nc3ccccc32)cc1 (stereo not drawn) ; system: Glycogen synthase kinase-3 beta (Homo sapiens, UniProt P49841).
< 5.00

Please tell me the measured pIC50 for CC(=O)Nc1ccc2c(c1)C(CC(=O)O)(OC(C)=O)C(=O)N2 (stereo not drawn) ; system: Glycogen synthase kinase-3 beta (Homo sapiens, UniProt P49841).
< 5.00

Please tell me the measured pIC50 for O=C1Nc2ccc(NC(=O)c3ccccc3)cc2/C1=C/c1ccc(O)cc1 ; system: Glycogen synthase kinase-3 beta (Homo sapiens, UniProt P49841).
5.36

Please tell me the measured pIC50 for COc1ccc2c(c1)/C(=C/C(=O)O)C(=O)N2 ; system: Glycogen synthase kinase-3 beta (Homo sapiens, UniProt P49841).
< 5.00

Please tell me the measured pIC50 for O=C1Nc2ccc([N+](=O)[O-])cc2C1=Cc1ccncc1 (mixture of isomers) ; system: Glycogen synthase kinase-3 beta (Homo sapiens, UniProt P49841).
< 5.00

---

# Experimental Target: Glycogen synthase kinase-3 beta (Homo sapiens, UniProt P49841)
# Protocol Notes: Inhibition of recombinant human GSK3beta using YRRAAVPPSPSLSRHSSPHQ(pS)EDEEE as substrate measured after 60 mins by ADP-Glo luminescence assay
pIC50: −log10 of the molar value.
Parameter: pIC50

# count of solved cases: 6
>  <Molecule>
O=C1Nc2ccc([N+](=O)[O-])cc2/C1=C\c1ccccn1

>  <Parameter>
pIC50

>  <Result>
4.70

$$$$
>  <Molecule>
O=C1Nc2ccc([N+](=O)[O-])cc2/C1=C/c1ccco1

>  <Parameter>
pIC50

>  <Result>
4.89

$$$$
>  <Molecule>
O=C1Nc2ccc(Br)cc2C1=Cc1cccnc1 (mixture of isomers)

>  <Parameter>
pIC50

>  <Result>
< 5.00

$$$$
>  <Molecule>
O=C1Nc2ccccc2/C1=C/c1ccccn1

>  <Parameter>
pIC50

>  <Result>
8.38

$$$$
>  <Molecule>
O=C1Nc2ccccc2/C1=C/c1ccco1

>  <Parameter>
pIC50

>  <Result>
< 5.00

$$$$
>  <Molecule>
COc1cc(NC(C)=O)c2c(c1)C(CC#N)(OC(C)=O)C(=O)N2 (stereo not given)

>  <Parameter>
pIC50

>  <Result>
< 5.00

$$$$

Give reported pIC50 value for O=C1Nc2ccc(Br)cc2C1=Cc1ccncc1 (mixture of isomers)
< 5.00

Give reported pIC50 value for O=C1Nc2ccc(Br)cc2C1=Cc1ccc(Br)cc1 (mixture of isomers)
< 5.00

Give reported pIC50 value for O=C1Nc2ccccc2C1=Cc1ccncc1 (mixture of isomers)
< 5.00

Give reported pIC50 value for CCC(=O)Nc1cc(NC(=O)CC)c2c(c1)C(CC#N)(OC(=O)CC)C(=O)N2 (stereo not given)
< 5.00

Give reported pIC50 value for O=C1Nc2ccc(Br)cc2/C1=C\c1ccccn1
< 5.00

Give reported pIC50 value for COC(=O)Nc1ccc2c(c1)/C(=C/c1ccc(Br)cc1)C(=O)N2
< 5.00

Give reported pIC50 value for O=C1Nc2ccc(Br)cc2C1=Cc1ccco1 (mixture of isomers)
< 5.00

Give reported pIC50 value for Cc1ccc(C(=O)CC2(O)C(=O)Nc3ccc(Br)cc32)cc1 (stereo not given)
< 5.00

Give reported pIC50 value for COc1ccc(C(=O)CC2(O)C(=O)Nc3ccc(Br)cc32)cc1 (stereo not given)
< 5.00
